- TEST_DETAILS: Volume of distribution at steady state in Wistar-Han rat at 1 mg/kg, iv
- Type: ADME, organism-based
- Parameters: dose 1 mg/kg, route intravenous
- PROTOCOL_CONDITIONS: in vivo, read-out: Vdss
OUTCOME_MEASURE: Vd (L/kg)
Write the number in L/kg without appending the unit.

Query: Given CCn1cc2c(Oc3cnc(C(=O)N4CCC4)c(F)c3)cc(C(=O)Nc3cnc(C)cn3)cc2n1 , state its recorded Vd.
Response: 0.61

----------
- SYSTEM_NAME: Hexokinase-4 (Homo sapiens)
- Sequence (P35557 whole entry): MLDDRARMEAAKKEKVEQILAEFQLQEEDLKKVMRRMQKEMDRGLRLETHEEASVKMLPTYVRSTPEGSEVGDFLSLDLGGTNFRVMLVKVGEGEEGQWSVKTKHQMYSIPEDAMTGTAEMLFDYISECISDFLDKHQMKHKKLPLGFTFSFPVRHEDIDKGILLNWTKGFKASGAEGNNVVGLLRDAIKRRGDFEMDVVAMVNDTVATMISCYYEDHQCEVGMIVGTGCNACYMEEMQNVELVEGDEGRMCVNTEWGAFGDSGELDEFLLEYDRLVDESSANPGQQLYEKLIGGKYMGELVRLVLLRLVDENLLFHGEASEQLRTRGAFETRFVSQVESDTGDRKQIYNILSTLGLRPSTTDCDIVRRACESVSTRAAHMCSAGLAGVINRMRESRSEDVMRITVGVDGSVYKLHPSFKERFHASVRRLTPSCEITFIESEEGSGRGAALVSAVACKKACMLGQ
- TEST_DETAILS: Activation of recombinant human glucokinase assessed measuring rate of glucose 6-phosphate formation using G6PDH/NADP coupling
// returns NOT MET unless EC50 is strictly below 600 nM, in which case MET

Look over these answered cases.
>  <CHEMICAL_STRUCTURE>
CCn1cc2c(Oc3cnc(C(=O)N(C)C)c(F)c3)cc(C(=O)Nc3cnc(C)cn3)cc2n1

>  <SYSTEM_NAME>
Hexokinase-4 (Homo sapiens)

>  <LABEL_CLASS>
MET

$$$$
>  <CHEMICAL_STRUCTURE>
Cc1cnc(NC(=O)c2cc(Oc3cnc(C(=O)N(C)C)c(F)c3)c3cn(C)nc3c2)cn1

>  <SYSTEM_NAME>
Hexokinase-4 (Homo sapiens)

>  <LABEL_CLASS>
MET

$$$$
>  <CHEMICAL_STRUCTURE>
Cc1cnc(NC(=O)c2cc(Oc3ccc(S(C)(=O)=O)cc3)c3cn(C)nc3c2)cn1

>  <SYSTEM_NAME>
Hexokinase-4 (Homo sapiens)

>  <LABEL_CLASS>
NOT MET

$$$$
>  <CHEMICAL_STRUCTURE>
Cc1cnc(NC(=O)c2cc(Oc3cnc(C(=O)N4CCC4)c(F)c3)c3cn(C)nc3c2)cn1

>  <SYSTEM_NAME>
Hexokinase-4 (Homo sapiens)

>  <LABEL_CLASS>
MET

$$$$
>  <CHEMICAL_STRUCTURE>
CCn1cc2c(Oc3ccc(S(C)(=O)=O)cc3)cc(C(=O)Nc3cnc(C)cn3)cc2n1

>  <SYSTEM_NAME>
Hexokinase-4 (Homo sapiens)

>  <LABEL_CLASS>
NOT MET

$$$$

Query: # check: EC50 < 600 nM for Cc1cnc(NC(=O)c2cc(Oc3cnc(C(=O)N(C)C)cn3)c3cc(C)nn3c2)cn1
Response: NOT MET

Query: # check: EC50 < 600 nM for Cc1cnc(NC(=O)c2cc(Oc3ccc(S(=O)(=O)N(C)C)cc3)c3cn(C)nc3c2)cn1
Response: MET

Query: # check: EC50 < 600 nM for CCCn1cc2c(Oc3ccc(S(C)(=O)=O)cc3)cc(C(=O)Nc3cnc(C)cn3)cc2n1
Response: MET

Query: # check: EC50 < 600 nM for Cc1cnc(NC(=O)c2cc(Oc3cnc(C(=O)N(C)C)nc3)c3cn(C)nc3c2)cn1
Response: NOT MET
